Recorded viability, T/C by entry
Test system: 276233-004-R-J1-PDC complex spheroid viability
Test: Anticancer human tumor 276233-004-R-J1-PDC patient-derived colon adenocarcinoma cell line growth inhibition [GQUAD]
Settings: second compound 0.316 µM; first compound 0.1 µM; stronger effect = lower value
Value Kind: viability, T/C

>  <Compound>
Cc1cccc(N(C)C(=O)C2C(O)CCN2c2nc(C)cc(C(F)(F)F)c2C#N)c1 (centres undefined) + Cc1cnc(CNC(=O)c2c(=O)c3ccc(N4CCCN(C)CC4)nc3n3c2sc2ccccc23)cn1

>  <Reading>
72.1%

$$$$
>  <Compound>
COc1cc(C2c3cc4c(cc3C(OC3OC5COC(C)OC5C(O)C3O)C3COC(=O)C23)OCO4)cc(OC)c1O (centres undefined) + CN(C)c1ccc(Nc2c3ccc(NC(=O)CCN4CCCC4)cc3nc3cc(NC(=O)CCN4CCCC4)ccc23)cc1

>  <Reading>
69%

$$$$
>  <Compound>
COc1cccc2c1C(=O)c1c(O)c3c(c(O)c1C2=O)CC(O)(C(=O)CO)CC3OC1CC(N)C(O)C(C)O1 (centres undefined) + CN(C)c1ccc(Nc2c3ccc(NC(=O)CCN4CCCC4)cc3nc3cc(NC(=O)CCN4CCCC4)ccc23)cc1

>  <Reading>
68.4%

$$$$
>  <Compound>
CCCS(=O)(=O)Nc1ccc(F)c(C(=O)c2c[nH]c3ncc(-c4ccc(Cl)cc4)cc23)c1F + Cc1[nH]c2ccc(F)cc2c1-c1nc2c3cccnc3c3ncccc3c2[nH]1

>  <Reading>
71.2%

$$$$

---

Quick reference for pIC50 among some molecules
Tested on: 276233-004-R-J1-PDC complex spheroid viability
Experiment: Anticancer human tumor 276233-004-R-J1-PDC cell line growth inhibition [GQUAD];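 note: spheroids exposed to drugs for seven days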
Conditions: curve of first compound; second compound 1 µM
pIC50: −log10 of the molar value.

>  <Molecule>
C#Cc1c(F)ccc2cc(O)cc(-c3ncc4c(N5CC6CCC(C5)N6)nc(OCC56CCCN5CC(F)C6)nc4c3F)c12 (configuration not stated) + Cc1cnc(CNC(=O)c2c(=O)c3ccc(N4CCCN(C)CC4)nc3n3c2sc2ccccc23)cn1

>  <Target>
276233-004-R-J1-PDC complex spheroid viability

>  <pIC50>
5.15

$$$$
>  <Molecule>
COc1ccc([C@@H](O)c2cc(-c3ncnc4cc(N5CCOCC5)ccc34)c(F)cc2Cl)nn1 + CN(C)c1ccc(Nc2c3ccc(NC(=O)CCN4CCCC4)cc3nc3cc(NC(=O)CCN4CCCC4)ccc23)cc1

>  <Target>
276233-004-R-J1-PDC complex spheroid viability

>  <pIC50>
5.46

$$$$
>  <Molecule>
COc1cccc2c1C(=O)c1c(O)c3c(c(O)c1C2=O)CC(O)(C(=O)CO)CC3OC1CC(N)C(O)C(C)O1 (configuration not stated) + CN(C)c1ccc(Nc2c3ccc(NC(=O)CCN4CCCC4)cc3nc3cc(NC(=O)CCN4CCCC4)ccc23)cc1

>  <Target>
276233-004-R-J1-PDC complex spheroid viability

>  <pIC50>
< 5.00

$$$$
>  <Molecule>
CC(C)n1c(=O)n(C)c2cnc3cc(F)c(-c4ccc(OCCCN5CCCCC5)nc4)cc3c21 + Cc1[nH]c2ccc(F)cc2c1-c1nc2c3cccnc3c3ncccc3c2[nH]1

>  <Target>
276233-004-R-J1-PDC complex spheroid viability

>  <pIC50>
< 5.00

$$$$
>  <Molecule>
Nc1ccn(C2OC(CO)C(O)C2(F)F)c(=O)n1 (configuration not stated) + Cc1[nH]c2ccc(F)cc2c1-c1nc2c3cccnc3c3ncccc3c2[nH]1

>  <Target>
276233-004-R-J1-PDC complex spheroid viability

>  <pIC50>
< 5.00

$$$$
>  <Molecule>
Cn1ncnc1[C@H]1c2n[nH]c(=O)c3cc(F)cc(c23)N[C@@H]1c1ccc(F)cc1 + CN(C)c1ccc(Nc2c3ccc(NC(=O)CCN4CCCC4)cc3nc3cc(NC(=O)CCN4CCCC4)ccc23)cc1

>  <Target>
276233-004-R-J1-PDC complex spheroid viability

>  <pIC50>
< 6.50

$$$$
>  <Molecule>
CC(=O)O[C@H]1C(=O)[C@@]2(C)[C@H]([C@H](OC(=O)c3ccccc3)[C@]3(O)C[C@H](OC(=O)[C@H](O)[C@@H](NC(=O)c4ccccc4)c4ccccc4)C(C)=C1C3(C)C)[C@]1(OC(C)=O)CO[C@@H]1C[C@@H]2O + Cc1cnc(CNC(=O)c2c(=O)c3ccc(N4CCCN(C)CC4)nc3n3c2sc2ccccc23)cn1

>  <Target>
276233-004-R-J1-PDC complex spheroid viability

>  <pIC50>
< 5.00

$$$$
>  <Molecule>
C=CC(=O)N1CCN(c2nc(=O)n(-c3c(C)ccnc3C(C)C)c3nc(-c4c(O)cccc4F)c(F)cc23)C(C)C1 (configuration not stated) + CN(C)c1ccc(Nc2c3ccc(NC(=O)CCN4CCCC4)cc3nc3cc(NC(=O)CCN4CCCC4)ccc23)cc1

>  <Target>
276233-004-R-J1-PDC complex spheroid viability

>  <pIC50>
< 5.00

$$$$
>  <Molecule>
COc1ccc([C@@H](O)c2cc(-c3ncnc4cc(N5CCOCC5)ccc34)c(F)cc2Cl)nn1 + Cc1cnc(CNC(=O)c2c(=O)c3ccc(N4CCCN(C)CC4)nc3n3c2sc2ccccc23)cn1

>  <Target>
276233-004-R-J1-PDC complex spheroid viability

>  <pIC50>
5.60

$$$$
>  <Molecule>
Cc1cccc(N(C)C(=O)C2C(O)CCN2c2nc(C)cc(C(F)(F)F)c2C#N)c1 (configuration not stated) + CN(C)c1ccc(Nc2c3ccc(NC(=O)CCN4CCCC4)cc3nc3cc(NC(=O)CCN4CCCC4)ccc23)cc1

>  <Target>
276233-004-R-J1-PDC complex spheroid viability

>  <pIC50>
< 5.00

$$$$
>  <Molecule>
CC1COCCN1c1cc(C2(O)CC3CCC(C2)O3)c2cnn(-c3ccn[nH]3)c2n1 (configuration not stated) + Cc1[nH]c2ccc(F)cc2c1-c1nc2c3cccnc3c3ncccc3c2[nH]1

>  <Target>
276233-004-R-J1-PDC complex spheroid viability

>  <pIC50>
6.18

$$$$
>  <Molecule>
CC[C@@]1(O)C(=O)OCc2c1cc1n(c2=O)Cc2cc3c(CN(C)C)c(O)ccc3nc2-1 + CN(C)c1ccc(Nc2c3ccc(NC(=O)CCN4CCCC4)cc3nc3cc(NC(=O)CCN4CCCC4)ccc23)cc1

>  <Target>
276233-004-R-J1-PDC complex spheroid viability

>  <pIC50>
< 6.50

$$$$

Values were extracted from PubChem BioAssay AID2060496.
